Target: LYN (Homo sapiens, UniProt P07948)
Construct: purchased Caliper Life Sciences
Sequence (P07948 whole entry, species assumed): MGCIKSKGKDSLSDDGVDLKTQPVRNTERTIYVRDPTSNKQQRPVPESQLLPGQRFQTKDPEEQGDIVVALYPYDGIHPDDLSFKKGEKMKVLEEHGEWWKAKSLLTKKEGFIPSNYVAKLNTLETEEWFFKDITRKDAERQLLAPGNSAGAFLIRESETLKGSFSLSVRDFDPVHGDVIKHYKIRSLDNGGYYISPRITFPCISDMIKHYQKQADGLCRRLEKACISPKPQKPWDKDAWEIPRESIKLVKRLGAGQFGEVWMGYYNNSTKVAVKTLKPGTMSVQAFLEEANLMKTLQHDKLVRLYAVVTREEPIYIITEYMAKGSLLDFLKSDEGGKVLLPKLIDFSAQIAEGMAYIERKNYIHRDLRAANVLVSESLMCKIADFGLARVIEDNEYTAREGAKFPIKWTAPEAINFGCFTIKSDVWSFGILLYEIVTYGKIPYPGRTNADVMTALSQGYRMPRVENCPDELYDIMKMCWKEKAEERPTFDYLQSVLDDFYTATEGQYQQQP
Assay: Desktop Profiler kinase panel, LYN
Assay type: biochemical
Conditions: 1 micromolar concentration of the compound
Catalogue of compounds with associated inhibition at 1 µM

Sample answers from the record:
Query O=C(Nc1ccc(Nc2ccnc3[nH]c(=O)c4ccccc4c23)cc1)c1ccccc1 on LYN (Homo sapiens, UniProt P07948); inhibition at 1 µM returned: 50 to 70%

Query COc1ccccc1Nc1ccnc2[nH]c(=O)c3ccccc3c12 on LYN (Homo sapiens, UniProt P07948); inhibition at 1 µM returned: 70 to 90%

Query COc1ccc(Nc2ccnc3[nH]c(=O)c4ccccc4c23)cc1 on LYN (Homo sapiens, UniProt P07948); inhibition at 1 µM returned: 70 to 90%

Query compound follows.
Query O=c1[nH]c2nccc(NCc3ccccc3)c2c2ccccc12 on LYN (Homo sapiens, UniProt P07948); inhibition at 1 µM returned: 70 to 90%

----------
Biological target: ABL (Homo sapiens)
Construct: purchased Caliper Life Sciences
Test: Desktop Profiler kinase panel, ABL
Type: biochemical
Details: 10 micromolar concentration of the compound; read-out: Percent Inhibition ABL
value-kind: inhibition at 10 µM

Just so you know, measured inhibition at 10 µM for COc1ccccc1Nc1ccnc2[nH]c(=O)c3ccccc3c12 [Example 114] came out at > 90%

Just so you know, measured inhibition at 10 µM for Clc1ccc2c(Nc3cccc(Br)c3)nc3ncccc3c2c1 [Example 59] came out at 50 to 70%

Just so you know, measured inhibition at 10 µM for Clc1nc2nccc(NCc3ccccc3)c2c2ccccc12 [Example 103] came out at 70 to 90%

Just so you know, measured inhibition at 10 µM for O=c1[nH]c2nccc(NCc3ccccc3)c2c2ccccc12 [Example 96] came out at 70 to 90%

Further cases:
Just so you know, measured inhibition at 10 µM for NC(=O)c1ccc(Oc2ccc3c(=O)[nH]c4ncccc4c3c2)cc1 [Example 82] came out at 70 to 90%

----------
Biological target: ABL (Homo sapiens, UniProt P00519)
Construct: purchased Caliper Life Sciences
Sequence (P00519 whole entry, species assumed): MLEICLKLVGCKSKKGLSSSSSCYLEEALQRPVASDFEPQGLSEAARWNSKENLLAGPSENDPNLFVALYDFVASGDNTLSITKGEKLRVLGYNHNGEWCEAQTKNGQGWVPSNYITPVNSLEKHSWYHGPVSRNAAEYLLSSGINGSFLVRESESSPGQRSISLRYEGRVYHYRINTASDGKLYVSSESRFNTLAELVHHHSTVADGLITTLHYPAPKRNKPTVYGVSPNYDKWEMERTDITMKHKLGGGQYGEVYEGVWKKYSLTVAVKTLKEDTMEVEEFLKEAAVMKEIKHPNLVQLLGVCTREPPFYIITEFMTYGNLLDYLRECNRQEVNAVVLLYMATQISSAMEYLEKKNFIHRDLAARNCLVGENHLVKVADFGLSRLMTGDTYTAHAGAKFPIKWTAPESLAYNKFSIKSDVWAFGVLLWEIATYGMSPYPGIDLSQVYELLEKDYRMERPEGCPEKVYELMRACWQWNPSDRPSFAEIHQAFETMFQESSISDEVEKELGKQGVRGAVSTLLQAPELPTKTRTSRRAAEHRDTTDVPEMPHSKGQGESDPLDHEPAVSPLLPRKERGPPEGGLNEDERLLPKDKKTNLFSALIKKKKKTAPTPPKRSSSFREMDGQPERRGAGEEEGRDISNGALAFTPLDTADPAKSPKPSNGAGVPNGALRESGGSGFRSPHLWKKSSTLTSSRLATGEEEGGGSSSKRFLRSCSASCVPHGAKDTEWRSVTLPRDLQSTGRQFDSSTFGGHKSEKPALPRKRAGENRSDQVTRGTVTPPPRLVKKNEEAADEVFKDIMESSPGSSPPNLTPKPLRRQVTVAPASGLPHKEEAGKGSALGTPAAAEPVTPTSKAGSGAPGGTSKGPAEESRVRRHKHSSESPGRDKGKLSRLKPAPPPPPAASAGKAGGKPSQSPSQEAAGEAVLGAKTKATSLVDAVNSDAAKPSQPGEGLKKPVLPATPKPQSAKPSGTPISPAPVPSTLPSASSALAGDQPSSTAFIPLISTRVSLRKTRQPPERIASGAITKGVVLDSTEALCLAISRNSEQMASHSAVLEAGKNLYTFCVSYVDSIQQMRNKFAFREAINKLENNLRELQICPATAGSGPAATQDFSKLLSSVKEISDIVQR
Test: Desktop Profiler kinase panel, ABL
Type: biochemical
Conditions: 1 micromolar concentration of the compound
value-kind: inhibition at 1 µM

Just so you know, measured inhibition at 1 µM for COc1ccccc1Nc1ccnc2[nH]c(=O)c3ccccc3c12 came out at 70 to 90%

Just so you know, measured inhibition at 1 µM for O=c1[nH]c2nccc(NCc3ccccc3)c2c2ccccc12 came out at 70 to 90%

Just so you know, measured inhibition at 1 µM for O=c1[nH]c2nccc(Nc3ccccc3)c2c2ccccc12 came out at > 90%

Just so you know, measured inhibition at 1 µM for COc1ccc(Oc2ccnc3[nH]c(=O)c4ccccc4c23)cc1 came out at 70 to 90%

Query compound follows.
Just so you know, measured inhibition at 1 µM for COc1ccc(Nc2ccnc3[nH]c(=O)c4ccccc4c23)cc1 came out at 50 to 70%

----------
Catalogue of compounds with associated inhibition at 10 µM
Biological target: RSK1 (Homo sapiens, UniProt Q15418)
Construct: purchased Caliper Life Sciences
Sequence (Q15418 whole entry, species assumed): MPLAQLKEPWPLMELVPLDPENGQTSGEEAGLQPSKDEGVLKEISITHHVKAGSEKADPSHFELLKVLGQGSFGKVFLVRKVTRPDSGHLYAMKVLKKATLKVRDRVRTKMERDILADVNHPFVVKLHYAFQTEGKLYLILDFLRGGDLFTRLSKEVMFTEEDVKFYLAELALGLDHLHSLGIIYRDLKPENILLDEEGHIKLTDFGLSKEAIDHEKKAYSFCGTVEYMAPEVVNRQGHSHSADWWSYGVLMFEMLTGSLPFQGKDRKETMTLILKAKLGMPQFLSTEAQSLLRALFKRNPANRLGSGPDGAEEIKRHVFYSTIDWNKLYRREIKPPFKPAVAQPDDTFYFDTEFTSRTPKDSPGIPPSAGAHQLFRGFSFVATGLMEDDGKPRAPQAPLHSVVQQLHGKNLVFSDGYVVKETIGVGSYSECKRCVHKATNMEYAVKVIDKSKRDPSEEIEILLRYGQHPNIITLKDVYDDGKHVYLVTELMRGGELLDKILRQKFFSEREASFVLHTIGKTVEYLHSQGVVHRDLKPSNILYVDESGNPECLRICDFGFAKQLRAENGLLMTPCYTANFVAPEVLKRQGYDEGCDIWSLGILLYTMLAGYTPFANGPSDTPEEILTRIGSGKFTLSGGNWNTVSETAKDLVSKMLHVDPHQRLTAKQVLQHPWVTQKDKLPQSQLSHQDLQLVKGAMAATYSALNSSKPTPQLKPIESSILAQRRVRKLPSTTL
Assay: Desktop Profiler kinase panel, RSK1
Format: biochemical
Conditions: 10 micromolar concentration of the compound; read-out: Percent Inhibition RSK1
Experimental: The Aurora assays described here are performed on two Caliper Life Sciences systems: the LC3000 and the Desktop Profiler. These provide data on enzyme activity via measurement of the relative amounts of phosphorylated or unphosphorylated fluorescently labelled substrate peptide at the end of an enzymatic reaction. […] Reading of the plate in the Profiler is identical to the LC3000, and the ratio between substrate and product peaks provides the activity of the enzyme in that well. […]

Sample answers from the record:
Just so you know, measured inhibition at 10 µM for O=c1[nH]c2ncccc2c2cc(Nc3cccc(F)c3)ccc12 came out at 50 to 70%

Just so you know, measured inhibition at 10 µM for CC(=O)Nc1ccc(Oc2ccc3c(=O)[nH]c4ncccc4c3c2)cc1 came out at 70 to 90%

Just so you know, measured inhibition at 10 µM for Clc1nc2nccc(NCc3ccccc3)c2c2ccccc12 came out at 50 to 70%

Further cases:
Just so you know, measured inhibition at 10 µM for NC(=O)c1ccc(Oc2ccc3c(=O)[nH]c4ncccc4c3c2)cc1 came out at 50 to 70%

----------
Target: ABL (Homo sapiens, UniProt P00519)
Construct: purchased Caliper Life Sciences
Experiment: Desktop Profiler kinase panel, ABL
Format: biochemical
Details: 10 micromolar concentration of the compound; read-out: Percent Inhibition ABL
Protocol: The Aurora assays described here are performed on two Caliper Life Sciences systems: the LC3000 and the Desktop Profiler. These provide data on enzyme activity via measurement of the relative amounts of phosphorylated or unphosphorylated fluorescently labelled substrate peptide at the end of an enzymatic reaction. […] Reading of the plate in the Profiler is identical to the LC3000, and the ratio between substrate and product peaks provides the activity of the enzyme in that well. […]
value-kind: inhibition at 10 µM

Sample answers from the record:
Just so you know, measured inhibition at 10 µM for CC(=O)Nc1ccc(Oc2ccc3c(=O)[nH]c4ncccc4c3c2)cc1 came out at > 90%

Just so you know, measured inhibition at 10 µM for COc1ccc(Nc2ccnc3[nH]c(=O)c4ccccc4c23)cc1 came out at 70 to 90%

Just so you know, measured inhibition at 10 µM for Clc1nc2nccc(Oc3ccccc3)c2c2ccccc12 came out at 50 to 70%

Further cases:
Just so you know, measured inhibition at 10 µM for O=c1[nH]c2ncccc2c2cc(Nc3cccc(F)c3)ccc12 came out at > 90%

Just so you know, measured inhibition at 10 µM for O=c1[nH]c2ncc(NCc3ccccc3)cc2c2ccccc12 came out at 50 to 70%

Just so you know, measured inhibition at 10 µM for Clc1nc2nccc(Nc3ccccc3)c2c2ccccc12 came out at > 90%

Just so you know, measured inhibition at 10 µM for O=c1[nH]c2ncc(Nc3ccccc3)cc2c2ccccc12 came out at 70 to 90%

Just so you know, measured inhibition at 10 µM for COc1ccccc1Nc1ccc2c(=O)[nH]c3ncccc3c2c1 came out at 50 to 70%

Just so you know, measured inhibition at 10 µM for O=c1[nH]c2nccc(Nc3ccccc3)c2c2ccccc12 came out at > 90%

----------
Biological target: PKD2 (Homo sapiens, UniProt Q9BZL6)
Construct: purchased Caliper Life Sciences
Sequence (Q9BZL6 1-878): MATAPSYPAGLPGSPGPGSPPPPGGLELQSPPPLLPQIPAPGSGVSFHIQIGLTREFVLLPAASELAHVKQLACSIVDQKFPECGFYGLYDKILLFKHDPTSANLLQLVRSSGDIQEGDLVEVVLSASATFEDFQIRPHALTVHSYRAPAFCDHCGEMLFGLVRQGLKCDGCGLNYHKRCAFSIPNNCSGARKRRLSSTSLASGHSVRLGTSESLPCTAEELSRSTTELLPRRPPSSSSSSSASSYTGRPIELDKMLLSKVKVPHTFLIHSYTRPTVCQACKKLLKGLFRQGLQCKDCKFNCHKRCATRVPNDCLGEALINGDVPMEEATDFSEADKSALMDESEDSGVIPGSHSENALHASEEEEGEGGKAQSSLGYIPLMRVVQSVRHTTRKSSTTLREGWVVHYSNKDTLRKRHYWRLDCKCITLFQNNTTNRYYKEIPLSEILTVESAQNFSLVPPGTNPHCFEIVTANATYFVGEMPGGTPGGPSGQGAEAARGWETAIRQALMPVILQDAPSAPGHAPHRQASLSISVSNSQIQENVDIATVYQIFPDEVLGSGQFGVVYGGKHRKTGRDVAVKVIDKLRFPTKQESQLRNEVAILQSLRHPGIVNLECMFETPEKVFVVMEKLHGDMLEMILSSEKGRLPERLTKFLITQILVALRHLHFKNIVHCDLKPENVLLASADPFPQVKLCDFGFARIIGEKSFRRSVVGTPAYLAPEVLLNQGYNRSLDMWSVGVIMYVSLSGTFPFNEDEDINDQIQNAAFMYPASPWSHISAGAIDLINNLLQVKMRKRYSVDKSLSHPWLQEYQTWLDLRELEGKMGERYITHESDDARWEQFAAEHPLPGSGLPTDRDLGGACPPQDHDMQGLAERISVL
Assay: Desktop Profiler kinase panel, PKD2
Format: biochemical
Conditions: 10 micromolar concentration of the compound; read-out: Percent Inhibition PKD2
value-kind: inhibition at 10 µM

Sample answers from the record:
Just so you know, measured inhibition at 10 µM for CC(=O)Nc1ccc(Oc2ccc3c(=O)[nH]c4ncccc4c3c2)cc1 came out at > 90%

Just so you know, measured inhibition at 10 µM for COc1cccc(CNc2ccnc3[nH]c(=O)c4ccccc4c23)c1 came out at 50 to 70%

Just so you know, measured inhibition at 10 µM for O=c1[nH]c2nccc(NCc3ccccc3)c2c2ccccc12 came out at 50 to 70%

Further cases:
Just so you know, measured inhibition at 10 µM for NC(=O)c1ccc(Oc2ccc3c(=O)[nH]c4ncccc4c3c2)cc1 came out at 50 to 70%

Just so you know, measured inhibition at 10 µM for O=c1[nH]c2ncccc2c2cc(Nc3cccc(F)c3)ccc12 came out at > 90%
